Target: human V1a receptor (Homo sapiens, UniProt P37288)
Sequence (P37288 whole entry): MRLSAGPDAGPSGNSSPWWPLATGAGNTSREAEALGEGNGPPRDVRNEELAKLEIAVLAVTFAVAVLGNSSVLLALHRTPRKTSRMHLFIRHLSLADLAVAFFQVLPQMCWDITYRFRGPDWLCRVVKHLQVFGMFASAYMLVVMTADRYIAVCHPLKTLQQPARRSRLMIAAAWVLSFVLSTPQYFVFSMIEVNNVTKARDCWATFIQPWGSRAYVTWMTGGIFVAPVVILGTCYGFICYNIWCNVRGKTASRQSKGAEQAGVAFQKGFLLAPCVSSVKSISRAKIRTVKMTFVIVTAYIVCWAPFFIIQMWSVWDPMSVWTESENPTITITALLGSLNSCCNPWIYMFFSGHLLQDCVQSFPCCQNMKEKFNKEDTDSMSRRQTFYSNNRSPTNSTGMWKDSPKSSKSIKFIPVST
Experiment: Cellular in vitro assay for determining vasopressin receptor activity, V1a receptor cell line (photoprotein luminescence)
Type: cell-based
Conditions: selectivity ratio of the cellular IC50 values
Protocol: B-1. Cellular In Vitro Assay for Determining Vasopressin Receptor Activity The identification of agonists and antagonists of the V1a and V2 vasopressin receptors from humans, rats and dogs as well as the quantification of the activity of the compounds of the invention is carried out using recombinant cell lines. […] The bioluminescence of the cell lines is detected using a suitable luminometer [Milligan G, Marshall F, Rees S, Trends in Pharmacological Sciences 17, 235-237 (1996)]. […]
parameter_measured: ratio IC50 hV2/hV1a

INSERT INTO assay_data (compound, recorded_number) VALUES
  ('O=c1n(Cc2nc(NCCN3CCCCS3(=O)=O)n(-c3ccccc3Cl)n2)nc(-c2ccc(Cl)cc2)n1C[C@H](O)C(F)(F)F [Example 25]', 2.0),
  ('CN(CCO)c1nc(Cn2nc(-c3ccc(Cl)cc3)n(C[C@H](O)C(F)(F)F)c2=O)nn1-c1ccccc1Cl [Example 84]', 14.4),
  ('NC(=O)C1CN(c2nc(Cn3nc(-c4ccc(Cl)cc4)n(C[C@H](O)C(F)(F)F)c3=O)nn2CCC(F)(F)F)C1 [Example 113]', 9.7),
  ('CC(C)(N)CNc1nc(Cn2nc(-c3ccc(Cl)cc3)n(C[C@H](O)C(F)(F)F)c2=O)nn1-c1ncccc1Cl [Example 95]', 845.9),
  ('COC(C)(C)CNc1nc(Cn2nc(-c3ccc(Cl)cc3)n(C[C@H](O)C(F)(F)F)c2=O)nn1-c1ccccc1Cl [Example 4]', 2.1);

A: O=c1n(Cc2nc(N3CCNC(C(F)(F)F)C3)n(CCC(F)(F)F)n2)nc(-c2ccc(Cl)cc2)n1C[C@H](O)C(F)(F)F (single isomer, unassigned) [Example 108]
B: CC(C)(O)CNc1nc(Cn2nc(-c3ccc(Cl)cc3)n(C[C@H](O)C(F)(F)F)c2=O)nn1CCC(F)(F)F [Example 110]
C: O=C1NCCC1Nc1nc(Cn2nc(-c3ccc(Cl)cc3)n(C[C@H](O)C(F)(F)F)c2=O)nn1-c1ccccc1Cl (single isomer, unassigned) [Example 18]
Q: Could you please sort these 3 entries by ratio IC50 hV2/hV1a from high to low? Please list the labels in the order you were asked to rank them.
Result: B, A, C

1: O=C1NCC(CNc2nc(Cn3nc(-c4ccc(Cl)cc4)n(C[C@H](O)C(F)(F)F)c3=O)nn2-c2ccccc2Cl)O1 (mixture of isomers) [Example 12]
2: O=c1n(Cc2nc(N3CCNC(C(F)(F)F)C3)n(-c3ccccc3Cl)n2)nc(-c2ccc(Cl)cc2)n1C[C@H](O)C(F)(F)F (single isomer, unassigned) [Example 68]
Q: Kindly compare 1 with 2 and tell me which has the lower ratio IC50 hV2/hV1a figure. Choose, then provide that item's label.
Result: 1
(1: 2.0, 2: 30.3)

A: O=c1n(Cc2nc(N3CCC(O)C3)n(-c3ccccc3Cl)n2)nc(-c2ccc(Cl)cc2)n1C[C@H](O)C(F)(F)F (mixture of isomers) [Example 43]
B: CC(C)(CNc1nc(Cn2nc(-c3ccc(Cl)cc3)n(C[C@H](O)C(F)(F)F)c2=O)nn1CCC(F)(F)F)NS(C)(=O)=O [Example 102]
C: CC(C)(CNc1nc(Cn2nc(-c3ccc(Cl)cc3)n(C[C@H](O)C(F)(F)F)c2=O)nn1-c1ccccc1Cl)C(N)=O [Example 5]
D: CN(C)c1nc(Cn2nc(-c3ccc(Cl)cc3)n(C[C@H](O)C(F)(F)F)c2=O)nn1-c1cccc(F)c1 [Example 120]
E: CC(C)(N)CNc1nc(Cn2nc(-c3ccc(Cl)cc3)n(C[C@H](O)C(F)(F)F)c2=O)nn1-c1ccccc1F [Example 91]
Q: Endpoint returns the given compounds ordered by ascending ratio IC50 hV2/hV1a. Please list the labels in the order you were asked to rank them.
Result: D, C, A, B, E

a: O=c1n(Cc2nc(N3CCOC(C(F)(F)F)C3)n(CCC(F)(F)F)n2)nc(-c2ccc(Cl)cc2)n1C[C@H](O)C(F)(F)F (single isomer, unassigned) [Example 104]
b: O=c1n(Cc2nc(N3CCC(O)(C(F)(F)F)C3)n(-c3ccccc3Cl)n2)nc(-c2ccc(Cl)cc2)n1C[C@H](O)C(F)(F)F (single isomer, unassigned) [Example 14]
Q: Kindly compare a with b and tell me which has the lower ratio IC50 hV2/hV1a figure. Choose, then provide that item's label.
Result: b
(b: 6.1, a: 12.0)

====

Biological target: human V1a receptor (Homo sapiens)
Assay: Cellular in vitro assay for determining vasopressin receptor activity, V1a receptor cell line (photoprotein luminescence)
Type: cell-based
Conditions: selectivity ratio of the cellular IC50 values
parameter_measured: ratio IC50 hV2/hV1a

Record excerpt, results attached:
INSERT INTO results (molecule, parameter_measured, recorded_number) VALUES
  ('COCCNc1nc(Cn2nc(-c3ccc(Cl)cc3)n(C[C@H](O)C(F)(F)F)c2=O)nn1-c1ccccc1Cl', 'ratio IC50 hV2/hV1a', 6.8),
  ('CS(=O)(=O)CCNc1nc(Cn2nc(-c3ccc(Cl)cc3)n(C[C@H](O)C(F)(F)F)c2=O)nn1-c1ccccc1Cl', 'ratio IC50 hV2/hV1a', 2.5),
  ('O=c1n(Cc2nc(N3CCC3)n(-c3cccc(F)c3)n2)nc(-c2ccc(Cl)cc2)n1C[C@H](O)C(F)(F)F', 'ratio IC50 hV2/hV1a', 1.0);

1: O=c1n(Cc2nc(N3CC(O)(C(F)(F)F)C3)n(-c3ccccc3Cl)n2)nc(-c2ccc(Cl)cc2)n1C[C@H](O)C(F)(F)F
2: CC(C)(CNc1nc(Cn2nc(-c3ccc(Cl)cc3)n(C[C@H](O)C(F)(F)F)c2=O)nn1-c1ccccc1Cl)NS(C)(=O)=O
3: O=c1n(Cc2nc(N3CCOC(C(F)(F)F)C3)n(CCC(F)(F)F)n2)nc(-c2ccc(Cl)cc2)n1C[C@H](O)C(F)(F)F (mixture of isomers) [Example 103]
Q: Could you please sort these 3 entries by ratio IC50 hV2/hV1a from high to low? Please list the labels in the order you were asked to rank them.
Result: 3, 2, 1

====

Molecular target: human V1a receptor (Homo sapiens)
Experiment: Cellular in vitro assay for determining vasopressin receptor activity, V1a receptor cell line (photoprotein luminescence)
Conditions: CHO cell line transfected with the human V1a receptor; agonist [Arg8]-vasopressin at EC50 concentration; read-out: IC50 hV1a
Method: B-1. Cellular In Vitro Assay for Determining Vasopressin Receptor Activity The identification of agonists and antagonists of the V1a and V2 vasopressin receptors from humans, rats and dogs as well as the quantification of the activity of the compounds of the invention is carried out using recombinant cell lines. […] The bioluminescence of the cell lines is detected using a suitable luminometer [Milligan G, Marshall F, Rees S, Trends in Pharmacological Sciences 17, 235-237 (1996)]. […]
pIC50: −log10 of the molar value.
parameter_measured: pIC50

Record excerpt, results attached:
INSERT INTO results (molecule, parameter_measured, recorded_number) VALUES
  ('NC(=O)C1CN(c2nc(Cn3nc(-c4ccc(Cl)cc4)n(C[C@H](O)C(F)(F)F)c3=O)nn2-c2ccccc2Cl)C1 [Example 74]', 'pIC50', 9.32),
  ('CC(C)(O)CNc1nc(Cn2nc(-c3ccc(Cl)cc3)n(C[C@H](O)C(F)(F)F)c2=O)nn1-c1ncccc1Cl [Example 98]', 'pIC50', 8.72),
  ('O=c1n(Cc2nc(N3CCS(=O)(=O)CC3)n(CCC(F)(F)F)n2)nc(-c2ccc(Cl)cc2)n1C[C@H](O)C(F)(F)F [Example 100]', 'pIC50', 6.48),
  ('O=c1n(Cc2nc(N3CCC(O)(C(F)(F)F)C3)n(-c3ccccc3Cl)n2)nc(-c2ccc(Cl)cc2)n1C[C@H](O)C(F)(F)F (single isomer, unassigned) [Example 14]', 'pIC50', 9.02),
  ('O=c1n(Cc2nc(NCC(O)C(F)(F)F)n(-c3ccccc3Cl)n2)nc(-c2ccc(Cl)cc2)n1C[C@H](O)C(F)(F)F (mixture of isomers) [Example 53]', 'pIC50', 9.28),
  ('O=c1n(Cc2nc(N3CCC(O)(C(F)(F)F)C3)n(-c3ccccc3Cl)n2)nc(-c2ccc(Cl)cc2)n1C[C@H](O)C(F)(F)F (single isomer, unassigned) [Example 15]', 'pIC50', 8.47);

1: O=C1NCCN1CCNc1nc(Cn2nc(-c3ccc(Cl)cc3)n(C[C@H](O)C(F)(F)F)c2=O)nn1-c1ccccc1Cl [Example 46]
2: NC(=O)C1CN(c2nc(Cn3nc(-c4ccc(Cl)cc4)n(C[C@H](O)C(F)(F)F)c3=O)nn2CCC(F)(F)F)C1 [Example 113]
Q: Kindly compare 1 with 2 and tell me which has the lower pIC50 figure. Choose, then provide that item's label.
Result: 2
(2: 7.43, 1: 9.19)
